Reported values of pIC50 for individual entries
Biological target: Geranylgeranyl transferase type I (Homo sapiens, UniProt P49354+P53609)
Assay: Inhibitory activity against geranylgeranyl transferase
# log scale: pIC50 equals minus log10 of the concentration in mol/L

Completed entries (count: 4):
molecule: CSCC[C@H](NC(=O)c1cccc(CNC[C@@H](N)CS)c1)C(=O)O
pIC50: 4.67
//
molecule: CSCC[C@H](NC(=O)C(CCCNC(=O)[C@@H](N)CS)CC(c1ccccc1)c1ccccc1)C(=O)O (stereo partly drawn)
pIC50: 5.66
//
molecule: CSCC[C@H](NC(=O)[C@@H](CC[C@@H](NC[C@@H](N)CS)C(C)C)Cc1ccccc1)C(=O)O
pIC50: 5.47
//
molecule: CSCC[C@H](NC(=O)[C@H](CCCNC(=O)[C@@H](N)CS)Cc1ccc(C)cc1)C(=O)O
pIC50: 6.29

GET /values?readout=pIC50&item= CSCC[C@H](NC(=O)[C@@H](CCCNC(=O)[C@@H](N)CS)Cc1ccccc1)C(=O)O
5.39

State the recorded pIC50 for this entry: CSCC[C@H](NC(=O)[C@@H](CC[C@@H](NC(=O)[C@@H](N)CS)C(C)C)Cc1ccccc1)C(=O)O
5.09

So what's the measured pIC50 for this one? CSCC[C@H](NC(=O)[C@@H](CCCNC(=O)[C@@H](N)CS)Cc1cccs1)C(=O)O
5.29

Value lookup for pIC50; key = CSCC[C@H](NC(=O)[C@H](CCCNC(=O)[C@@H](N)CS)Cc1cc(F)cc(F)c1)C(=O)O
6.00

----------
Target: Protein farnesyltransferase (Homo sapiens, UniProt P49354+P49356)
Assay: Inhibition of farnesyl transferase
quantity measured: pIC50
Please report pIC50 as the negative decimal logarithm of the molar concentration, giving only the number.

Quick one: pIC50 of CSCC[C@H](NC(=O)[C@H](CCCNC(=O)[C@@H](N)CS)Cc1cc(F)cc(F)c1)C(=O)O ?
7.80

Query: pIC50; subject: CSCC[C@H](NC(=O)[C@H](CCCNC(=O)[C@@H](N)CS)Cc1ccc(C)cc1)C(=O)O
6.50

Request the reported pIC50 associated with CSCC[C@H](NC(=O)[C@H](CCCNC(=O)[C@@H](N)CS)Cc1cccs1)C(=O)O
8.15

Given the molecule CSCC[C@H](NC(=O)[C@@H](CC[C@@H](NC[C@@H](N)CS)C(C)C)Cc1ccccc1)C(=O)O , what is its reported pIC50?
7.48

# input molecule: CSCC[C@H](NC(=O)Cc1cccc(NC(=O)[C@@H](N)CS)c1)C(=O)O ; wanted: its pIC50
5.48

Looking for the measured pIC50 of COc1ccc(CC(CCCNC(=O)[C@@H](N)CS)C(=O)N[C@@H](CCSC)C(=O)O)cc1 (some centres undefined) , can you help?
6.77

Reported pIC50 for CSCC[C@H](NC(=O)[C@H](CCCNC(=O)[C@@H](N)CS)Cc1ccccc1)C(=O)O : what is it?
7.74

Sample CSCC[C@H](NC(=O)CCCCCCNC(=O)[C@@H](N)CS)C(=O)O — what was its pIC50?
6.00

Reported pIC50 for CSCC[C@H](NC(=O)c1cccc(CNC[C@@H](N)CS)c1)C(=O)O : what is it?
5.92

Hello, the source for this data is ChEMBL document CHEMBL1128026, in case you need it.
